The reported measurements were obtained from paper PMC4225009.

reportedProperty: melting point

# compound, readoutValue
measured = [
    ("O=S(=O)(c1ccccc1)N1CCN(c2cccc(C(F)(F)F)c2)CC1", "109 to 111 °C (dec.)"),
    ("O=C(N1CCN(c2cccc(C(F)(F)F)c2)CC1)C1(c2ccccc2)CCCC1", "77 to 79 °C"),
    ("O=C(C1CC2CCC1C2)N1CCN(c2cccc(O)c2)CC1 (racemic) [(±)-endo-exo-3.8]", "187 to 189 °C (dec.)"),
    ("O=C(C1CC2CCC1C2)N1CCN(c2ccc(C(F)(F)F)cc2)CC1 (racemic) [(±)-endo-exo-3.2]", "126 to 127 °C (dec.)"),
    ("O=C(c1ccc2c(c1)OCO2)N1CCN(c2cccc(C(F)(F)F)c2)CC1", "87 to 89 °C"),
]

* * *

target: human EAAT3 (Homo sapiens); construct: expressed in transfected cells; experiment: [3H]-D-aspartate uptake assay at HEK293 cells stably expressing human EAAT3; assay type: cell-based; conditions: [3H]-D-aspartate uptake, HEK293 cells stably expressing human EAAT3; analogs 1 and 2.1-2.40 (Table 1); read-out: EAAT3 IC50
Sequence (P43005 whole entry): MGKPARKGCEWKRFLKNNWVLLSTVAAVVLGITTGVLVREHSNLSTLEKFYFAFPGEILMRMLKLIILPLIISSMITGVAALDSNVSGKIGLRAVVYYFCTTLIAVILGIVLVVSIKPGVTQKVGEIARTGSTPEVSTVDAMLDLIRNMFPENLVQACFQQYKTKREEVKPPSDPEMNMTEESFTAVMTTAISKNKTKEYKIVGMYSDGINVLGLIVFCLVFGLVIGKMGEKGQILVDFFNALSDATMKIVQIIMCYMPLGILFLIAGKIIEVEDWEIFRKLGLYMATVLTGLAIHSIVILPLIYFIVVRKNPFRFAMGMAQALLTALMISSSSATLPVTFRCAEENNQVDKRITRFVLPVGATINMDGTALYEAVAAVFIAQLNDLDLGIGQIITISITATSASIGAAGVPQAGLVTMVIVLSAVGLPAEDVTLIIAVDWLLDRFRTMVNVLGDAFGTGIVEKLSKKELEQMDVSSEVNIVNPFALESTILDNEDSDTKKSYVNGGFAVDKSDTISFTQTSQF
reportedProperty: IC50

# molecule, readoutValue
measured = [
    ("CC(=O)N1CCN(c2cccc(C(F)(F)F)c2)CC1 [2.7]", "> 100 µM"),
    ("O=C(c1cccc(Oc2ccccc2)c1)N1CCN(c2cccc(C(F)(F)F)c2)CC1 [2.13]", "> 300 µM"),
    ("CC(C)CC(=O)N1CCN(c2cccc(C(F)(F)F)c2)CC1 [2.8]", "> 300 µM"),
    ("O=C(C1CC1)N1CCN(c2cccc(C(F)(F)F)c2)CC1 [2.5]", "> 300 µM"),
    ("CC(C)(C)CC(=O)N1CCN(c2cccc(C(F)(F)F)c2)CC1 [2.9]", "> 300 µM"),
    ("FC(F)(F)c1cccc(N2CCN(CC3CC4CCC3C4)CC2)c1 (mixture of isomers) [(±)-endo-exo-2.34]", "> 300 µM"),
]

* * *

Entries and their measured IC50 follow.
biological target: human EAAT1 (Homo sapiens); construct: expressed in transfected cells; assay: [3H]-D-aspartate uptake assay at HEK293 cells stably expressing human EAAT1; type: cell-based
Sequence (P43003 whole entry): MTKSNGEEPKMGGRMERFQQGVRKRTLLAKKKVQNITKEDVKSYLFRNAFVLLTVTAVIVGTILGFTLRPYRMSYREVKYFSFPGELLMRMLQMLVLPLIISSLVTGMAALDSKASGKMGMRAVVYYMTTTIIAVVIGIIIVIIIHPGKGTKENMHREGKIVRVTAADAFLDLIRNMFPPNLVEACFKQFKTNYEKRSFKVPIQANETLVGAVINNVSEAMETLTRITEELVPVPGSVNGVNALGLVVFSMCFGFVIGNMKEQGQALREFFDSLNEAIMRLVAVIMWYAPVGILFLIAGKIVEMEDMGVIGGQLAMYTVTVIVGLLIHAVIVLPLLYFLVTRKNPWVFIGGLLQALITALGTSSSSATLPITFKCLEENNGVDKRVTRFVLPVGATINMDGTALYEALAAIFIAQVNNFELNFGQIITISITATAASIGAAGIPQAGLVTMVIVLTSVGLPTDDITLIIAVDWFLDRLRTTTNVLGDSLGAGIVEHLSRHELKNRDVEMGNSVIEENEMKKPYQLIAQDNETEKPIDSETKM

# smilesText, IC50
records = [
    ("O=C(Cc1ccccc1)N1CCN(c2cccc(C(F)(F)F)c2)CC1", "> 300 µM"),
    ("Nc1ccc(C(=O)N2CCN(c3cccc(C(F)(F)F)c3)CC2)cc1", "> 300 µM"),
    ("NCC(=O)N1CCN(c2cccc(C(F)(F)F)c2)CC1", "> 300 µM"),
    ("O=C(C1CCCC1)N1CCN(c2cccc(C(F)(F)F)c2)CC1", "> 300 µM"),
    ("O=C(c1cccc2ccccc12)N1CCN(c2cccc(C(F)(F)F)c2)CC1", "> 300 µM"),
    ("FC(F)(F)c1cccc(N2CCN(Cc3ccccc3)CC2)c1", "> 300 µM"),
    ("Nc1cccc(C(=O)N2CCN(c3cccc(C(F)(F)F)c3)CC2)c1", "> 300 µM"),
    ("O=C(c1cccs1)N1CCN(c2cccc(C(F)(F)F)c2)CC1", "> 100 µM"),
    ("CC(C)(C)C(=O)N1CCN(c2cccc(C(F)(F)F)c2)CC1", "> 1000 µM"),
    ("O=C(N1CCN(c2cccc(C(F)(F)F)c2)CC1)C12CC3CC(CC(C3)C1)C2", "> 300 µM"),
    ("O=C(N1CCN(c2cccc(C(F)(F)F)c2)CC1)C1(c2ccccc2)CCCC1", "> 300 µM"),
]
